experimentalReadout: melting point

Illustrative cases are given below, each with its answer.
chemicalString: O=C(Nc1ccncc1)c1ccc(-c2ccc3nnn(Cc4ccc5ncccc5c4)c3n2)cc1F
melting point: 217 to 219 °C
//
chemicalString: CNC(=O)c1ccc(-c2ccc3nnn(Cc4ccc5ncccc5c4)c3n2)cc1
melting point: 220 to 222 °C

Recorded result, "OCc1cc(-c2ccc3nnn(Cc4ccc5ncccc5c4)c3n2)cs1" , melting point: 188 to 191 °C

Recorded result, "Fc1cccc(-c2ccc3nnn(Cc4ccc5ncccc5c4)c3n2)c1" , melting point: 145 to 147 °C

Recorded result, "NC(=O)c1ccc(-c2ccc3nnn(Cc4ccc5ncccc5c4)c3n2)cc1" , melting point: 229 to 231 °C

====

Reported melting point by item:

chemicalString: CC(C)(c1ccc2ncccc2c1)n1nnc2ccc(-c3ccc(C(=O)NC4CC4)c(F)c3)nc21
melting point: 156 to 159 °C
--
chemicalString: FCCn1cc(-c2ccc3nnn(Cc4ccc5ncccc5c4)c3n2)cn1
melting point: 168 to 170 °C
--
chemicalString: COc1ccc(-c2ccc3nnn(Cc4ccc5ncccc5c4)c3n2)cc1
melting point: 144 to 146 °C

Recorded result, "Oc1cccc(-c2ccc3nnn(Cc4ccc5ncccc5c4)c3n2)c1" , melting point: 255 to 257 °C

Recorded result, "c1cnc2ccc(Cn3nnc4ccc(-c5ccc(N6CCOCC6)nc5)nc43)cc2c1" , melting point: 183 to 185 °C

Recorded result, "O=C(NCCC(=O)N1CCCCC1)c1ccc(-c2ccc3nnn(Cc4ccc5ncccc5c4)c3n2)cc1F" , melting point: 109 to 111 °C

Recorded result, "CC(=O)Nc1ccc(-c2ccc3nnn(Cc4ccc5ncccc5c4)c3n2)cc1" , melting point: 220 to 223 °C

Recorded result, "O=C(Nc1nc[nH]n1)c1ccc(-c2ccc3nnn(Cc4ccc5ncccc5c4)c3n2)cc1F" , melting point: 265 to 267 °C

Recorded result, "NCCCNC(=O)c1ccc(-c2ccc3nnn(Cc4ccc5ncccc5c4)c3n2)cc1F" , melting point: 292 to 294 °C

Recorded result, "Cc1ccc(-c2ccc3nnn(Cc4ccc5ncccc5c4)c3n2)s1" , melting point: 154 to 156 °C

Recorded result, "c1cnc2ccc(Cn3cnc4ccc(-c5cn[nH]c5)nc43)cc2c1" , melting point: 214 to 216 °C

====

Test system: MKN-45 cells
assaySummary: Inhibition of MKN-45 proliferation (MTT)
Format: cell-based, human
condition: Homo sapiens, MKN-45, MKN-45 proliferation
Counter-ions that a name gives are not always drawn.
experimentalReadout: GI50

molecule: O=C(Nc1nc[nH]n1)c1ccc(-c2ccc3nnn(Cc4ccc5ncccc5c4)c3n2)cc1F [Ex 52]
testedOn: MKN-45 cells
GI50: ≤ 50 nM
//
molecule: NC(=O)c1ccc(-c2ccc3nnn(Cc4ccc5ncccc5c4)c3n2)cc1F [Ex 15]
testedOn: MKN-45 cells
GI50: 50 to 150 nM
//
molecule: c1cnc2ccc(Cn3nnc4ccc(-c5cnn(C6CCNCC6)c5)nc43)cc2c1 [Ex 157]
testedOn: MKN-45 cells
GI50: < 1000 nM
//
molecule: OCc1cccc(-c2ccc3nnn(Cc4ccc5ncccc5c4)c3n2)c1 [Ex 4]
testedOn: MKN-45 cells
GI50: 150 to 500 nM

Recorded result, c1cnc2ccc(Cn3nnc4ccc(-c5cnn(CCN6CCOCC6)c5)nc43)cc2c1 [Ex 176, hydrochloride] , GI50: < 1000 nM

Recorded result, OCc1cc(-c2ccc3nnn(Cc4ccc5ncccc5c4)c3n2)cs1 [Ex 188] , GI50: 50 to 150 nM

Recorded result, CC(c1ccc2ncccc2c1)n1nnc2ccc(-c3cnn(CCO)c3)nc21 (stereo not shown) [Ex 164] , GI50: 50 to 150 nM

Recorded result, O=C(NCCN1CCOCC1)c1ccc(-c2ccc3nnn(Cc4ccc5ncccc5c4)c3n2)cc1 [Ex 36] , GI50: 50 to 150 nM

Recorded result, OCc1ccc(-c2ccc3nnn(Cc4ccc5ncccc5c4)c3n2)cc1 [Ex 6] , GI50: 150 to 500 nM

Recorded result, c1cnc2ccc(Cn3nnc4ccc(-c5ccc6[nH]ccc6c5)nc43)cc2c1 [Ex 169] , GI50: < 1000 nM

====

Reported melting point by item:

Recorded result, CN(C)CCCNC(=O)c1ccc(-c2ccc3nnn(Cc4ccc5ncccc5c4)c3n2)cc1F [Ex 72] , melting point: 148 to 150 °C

====

testedOn: UniProt P08581
Sequence (P08581 25-1390): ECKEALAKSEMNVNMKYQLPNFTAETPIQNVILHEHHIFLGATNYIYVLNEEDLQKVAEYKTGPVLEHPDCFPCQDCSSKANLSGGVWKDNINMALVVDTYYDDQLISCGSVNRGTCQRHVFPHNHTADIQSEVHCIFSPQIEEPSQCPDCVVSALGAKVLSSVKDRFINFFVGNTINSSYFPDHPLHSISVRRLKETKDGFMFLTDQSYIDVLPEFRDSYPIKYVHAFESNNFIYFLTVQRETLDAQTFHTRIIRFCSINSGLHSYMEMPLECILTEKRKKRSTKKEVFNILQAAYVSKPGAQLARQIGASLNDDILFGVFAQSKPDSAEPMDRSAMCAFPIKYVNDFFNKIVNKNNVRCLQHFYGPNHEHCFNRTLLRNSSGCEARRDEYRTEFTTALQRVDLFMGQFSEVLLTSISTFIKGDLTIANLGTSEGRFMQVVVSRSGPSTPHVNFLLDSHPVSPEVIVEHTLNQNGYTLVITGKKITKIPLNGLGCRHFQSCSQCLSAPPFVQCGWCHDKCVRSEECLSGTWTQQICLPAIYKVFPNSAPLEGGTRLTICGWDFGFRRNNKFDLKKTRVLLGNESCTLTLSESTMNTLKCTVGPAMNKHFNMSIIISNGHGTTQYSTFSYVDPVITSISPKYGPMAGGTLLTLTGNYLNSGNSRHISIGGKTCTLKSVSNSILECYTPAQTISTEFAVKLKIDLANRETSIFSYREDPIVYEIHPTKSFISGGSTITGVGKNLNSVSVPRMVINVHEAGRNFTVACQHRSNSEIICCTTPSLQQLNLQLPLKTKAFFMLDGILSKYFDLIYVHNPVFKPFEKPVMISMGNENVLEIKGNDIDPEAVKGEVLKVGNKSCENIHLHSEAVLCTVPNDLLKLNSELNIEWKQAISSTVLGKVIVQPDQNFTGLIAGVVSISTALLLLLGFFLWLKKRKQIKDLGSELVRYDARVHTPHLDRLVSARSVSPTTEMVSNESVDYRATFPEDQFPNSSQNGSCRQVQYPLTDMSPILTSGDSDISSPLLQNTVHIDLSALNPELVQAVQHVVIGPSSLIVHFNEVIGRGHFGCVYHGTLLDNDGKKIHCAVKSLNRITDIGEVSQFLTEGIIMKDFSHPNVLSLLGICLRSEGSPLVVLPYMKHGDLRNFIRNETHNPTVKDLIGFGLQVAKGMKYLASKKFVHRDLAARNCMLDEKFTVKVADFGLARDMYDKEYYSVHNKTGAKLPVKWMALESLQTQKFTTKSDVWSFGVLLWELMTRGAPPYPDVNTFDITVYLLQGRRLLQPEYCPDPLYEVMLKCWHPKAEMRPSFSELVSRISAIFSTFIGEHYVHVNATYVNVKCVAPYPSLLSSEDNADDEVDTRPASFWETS
assaySummary: MET kinase assay (colorimetric determination of c-Met kinase activity, HTScan Met Kinase Assay Kit)
Type: biochemical
Parameters: purchased Cell Signalling Technology, Beverly, Mass
condition: at 1 μM
experimentalReadout: inhibition at 1 µM

Illustrative cases are given below, each with its answer.
chemicalString: CCNC(=O)c1ccc(-c2ccc3nnn(Cc4ccc5ncccc5c4)c3n2)cc1Cl
testedOn: UniProt P08581
inhibition at 1 µM: 75 to 100%
//
chemicalString: NC(=O)c1ccc(-c2ccc3nnn(Cc4ccc5ncccc5c4)c3n2)cc1
testedOn: UniProt P08581
inhibition at 1 µM: 50 to 75%
//
chemicalString: O=C(O)c1ccc(-c2ccc3nnn(Cc4ccc5ncccc5c4)c3n2)cc1F
testedOn: UniProt P08581
inhibition at 1 µM: 75 to 100%
//
chemicalString: NC(=O)c1ccc(-c2ccc3nnn(Cc4ccc5ncccc5c4)c3n2)cc1Cl
testedOn: UniProt P08581
inhibition at 1 µM: 75 to 100%

Consider the record given below.
Recorded result, "NC(=O)c1c(F)cc(-c2ccc3nnn(Cc4ccc5ncccc5c4)c3n2)cc1F" , inhibition at 1 µM: 75 to 100%

====

Reported melting point by item:
Counter-ions that a name gives are not always drawn.

Illustrative cases are given below, each with its answer.
compound: CCn1cc(-c2ccc3nnn(Cc4ccc5ncccc5c4)c3n2)cn1
experimentalReadout: melting point
endpointResult: 132 to 134 °C
--
compound: O=C(O)c1ccc(-c2ccc3nnn(Cc4c(F)ccc(F)c4Cl)c3n2)cc1F
experimentalReadout: melting point
endpointResult: 211 to 213 °C
--
compound: O=C(O)Cn1cc(-c2ccc3nnn(Cc4ccc5ncccc5c4)c3n2)cn1
experimentalReadout: melting point
endpointResult: > 270 °C
--
compound: CN(C)CCCNC(=O)c1ccc(-c2ccc3nnn(Cc4ccc5ncccc5c4)c3n2)cc1F (as salt: hydrochloride) [Ex 121, dihydrochloride]
experimentalReadout: melting point
endpointResult: 137 to 140 °C

Recorded result, "CNC(=O)c1ccc(-c2ccc3nnn(Cc4ccc5ncccc5c4)c3n2)cc1Cl" , melting point: 227 to 230 °C

Recorded result, "Nc1cccc(-c2ccc3nnn(Cc4ccc5ncccc5c4)c3n2)c1" , melting point: 187 to 189 °C

Recorded result, "OCc1cccc(-c2ccc3nnn(Cc4ccc5ncccc5c4)c3n2)c1" , melting point: 191 to 193 °C

Recorded result, "CCCCNC(=O)c1ccc(-c2ccc3nnn(Cc4ccc5ncccc5c4)c3n2)cc1F" , melting point: 100 to 102 °C

Recorded result, "O=C(NO)c1ccc(-c2ccc3nnn(Cc4ccc5ncccc5c4)c3n2)cc1F" , melting point: 180 to 182 °C

Recorded result, "c1cnc2ccc(Cn3nnc4ccc(-c5ccc(N6CCCCC6)nc5)nc43)cc2c1" , melting point: 133 to 135 °C

====

Reported melting point by item:

Recorded result, "O=C(O)c1ccc(-c2ccc3nnn(Cc4ccc5ncccc5c4)c3n2)cc1F" , melting point: 254 to 257 °C

Recorded result, "CCNC(=O)c1ccc(-c2ccc3nnn(Cc4ccc5ncccc5c4)c3n2)cc1Cl" , melting point: 187 to 190 °C

Recorded result, "CNC(=O)c1ccc(-c2ccc3nnn(Cc4ccc5ncccc5c4)c3n2)cc1F" , melting point: 212 to 214 °C

Recorded result, "OCCn1cc(-c2ccc3ncn(Cc4ccc5ncccc5c4)c3n2)cn1" , melting point: 160 to 163 °C

Recorded result, "CC(C)(C)NC(=O)c1ccc(-c2ccc3nnn(Cc4ccc5ncccc5c4)c3n2)cc1F" , melting point: 210 to 212 °C

Recorded result, "CNC(=O)c1ccc(-c2ccc3nnn(Cc4c(F)ccc(F)c4Cl)c3n2)cc1F" , melting point: 213 to 215 °C

Recorded result, "O=Cc1cc(-c2ccc3nnn(Cc4ccc5ncccc5c4)c3n2)cs1" , melting point: 195 to 197 °C

Recorded result, "Nc1ncc(-c2ccc3nnn(Cc4ccc5ncccc5c4)c3n2)cn1" , melting point: 244 to 246 °C

Recorded result, "c1cnc2ccc(Cn3nnc4ccc(-c5ccc6c(c5)OCO6)nc43)cc2c1" , melting point: 179 to 181 °C

Recorded result, "CC(C)Oc1ccc(-c2ccc3nnn(Cc4ccc5ncccc5c4)c3n2)cc1F" , melting point: 128 to 130 °C

Recorded result, "CC(C)NC(=O)c1ccc(-c2ccc3nnn(Cc4ccc5ncccc5c4)c3n2)cc1" , melting point: 181 to 183 °C

====

experimentalReadout: melting point

Illustrative cases are given below, each with its answer.
compound: CONC(=O)c1ccc(-c2ccc3nnn(Cc4ccc5ncccc5c4)c3n2)cc1F.Cl [Ex 110]
melting point: 145 to 147 °C
//
compound: CCCNC(=O)c1ccc(-c2ccc3nnn(Cc4ccc5ncccc5c4)c3n2)cc1F [Ex 87]
melting point: 157 to 159 °C
//
compound: OCc1ccc(-c2ccc3nnn(Cc4ccc(F)cc4)c3n2)cc1 [Ex 11]
melting point: 210 to 213 °C
//
compound: CC(C)NC(=O)c1ccc(-c2ccc3nnn(Cc4ccc5ncccc5c4)c3n2)cc1F [Ex 99]
melting point: 177 to 179 °C

Recorded result, O=C(NCC(=O)N1CCCC1)c1ccc(-c2ccc3nnn(Cc4ccc5ncccc5c4)c3n2)cc1F [Ex 78] , melting point: 175 to 177 °C
